Parameter: inhibition at 72 h, 50 µM. Scope: all listed entries.
assay: Cytotoxicity against mouse RAW264.7 cells assessed as growth inhibition at 50 uM after 72 hrs by MTT assay; format: cell-based; details: read-out: GI
measured endpoint: inhibition at 72 h, 50 µM (%)

- CN1CCc2c(sc(NC(=O)C3CC3)c2C(N)=O)C1: 22.2
- COc1ccccc1C(=O)Nc1sc2c(c1C(N)=O)CCCCCC2: 24.8
- CN1CCc2c(sc(NC(=O)c3cccc4ccccc34)c2C(N)=O)C1: 28.4
- NC(=O)c1c(NC(=O)C2CCCC2)sc2c1CCCCCC2: 18.3
- NC(=O)c1c(NC(=O)c2cccc3ccccc23)sc2c1CCCCCC2: 28.3
- NC(=O)c1c(NC(=O)C2CC2)sc2c1CCCCCC2: 16.9
- CN1CCc2c(sc(NC(=O)C3CCCCC3)c2C(N)=O)C1: 18.3
- NC(=O)c1c(NC(=O)c2cccc([N+](=O)[O-])c2)sc2c1CCCCCC2: 36.1

# credit: ChEMBL document CHEMBL3124864
